Would you mind telling me the reported IC50 of each entry?
Target: L452R RBD (R319-F541 with L452R) (SARS-CoV-2, UniProt P0DTC2 319-541)
Assay: lateral flow NC50, RBD-AuNP vs immobilised ACE2
Record the result as a number with its unit.

**Q:** Entry 1035740 (antibody, V domains shown) VH: EVLLQQSGPELVKPGASVKIPCKASGYTFTDYNMDWVKQSHGKSLEWIGDINPNNGFTIYNQKFKGKATLTVDKSSSTAYMELRSLTSEDTAVYYCAREGYGNYFDYWGQGTTLTVSS VL: DVLLTQSPAILSVSPGERVSFSCRASQSIGTSLHWYQQRTNGSPRLLIKYVSESISGIPSRFSGSGSGTDFTLSINSVESEDIADYYCQQSSSWPTTFGAGTKLELK has what IC50?
**A:** 1.17 µg/mL

**Q:** Entry 1035709 (antibody, V domains shown) VH: EVQLQQSGPELVKPGASVKISCKTSGYTFTEYTMHWVKQSHGKSLEWIGGINPNIVDTGYNQKFKGKATLTVDKSSSTAYMELRSLTSEDSAVYYCARDGYPLYYAMDYWGQGTSVTVSS VL: DIQMTQSPSSLSASLGERVSLTCRASQEISGYLSWLQQKPDGTIKRLIYAASTLDSGVPKRFSGSRSGSDYSLTISSLESEDFADYYCLQYASYPWTFGGGTKLEIK has what IC50?
**A:** 0.92 µg/mL

**Q:** Entry 1035419 (antibody, V domains shown) VH: QVQLKQSGAELVRPGASVKLSCKTSGYIFTSYWIHWIKQRSGQGLEWIARIYPGTGSTYNNEKFKGKATLTADKSSSTAYMQLSSLKSEDSAVYFCARGEDNLYFYAMDYWGQGTSVTVSS VL: NIVLTQSPASLAVSLGQRATISCRASESVDSYGASFMHWCQQKPGQPPKLLIYLASNLESGVPARFSGSGSRTDFTLTIDPVEADDAATYYCQQNYEDPWTFGGGTKLEIK has what IC50?
**A:** 20.6 µg/mL

**Q:** Entry 1035762 (antibody, V domains shown) VH: EVQLQQSGPELVKPGASVKISCKTSGYTFTEYTMHWVKQSHGKSLEWIGGINPNNGDTGYNQKFKGKATLTVDKSSSTAYMELRSLTFEDSAVYYCARDGYPLYYAMDYWGQGTSVTVSS VL: DIQMTQSPSSLSASLGERVSLTCRASQEISGYLCWLQQKPDGTIKRLIYAASTLDSAVPKRFSGSRSGSDYSLTISSLESEDFADFYCLQYASYPWTFGGGTKLEIK has what IC50?
**A:** 0.73 µg/mL
